System: PAF-Induced Bronchoconstriction
method: PAF Induced Bronchoconstriction Assay
Format: in vivo, guinea pig
test settings: i.v. (dose not given), 1 minute pretreatment, PAF 1.0 μg/kg i.v.
experimental readout: Percent Inhib. of PAF-Induced Bronchoconstriction, mg/Kg i.v. (%)

>>> df
                                    compound  unit_spec  recorded_value
 0  O=C(/C=C/C=C(c1ccc(F)cc1)c1ccc(F)cc1)NCCCCc1cccnc1          %              91
 1  COc1ccc(/C(=C/C=C/C(=O)N[C@H](C)CCCc2cccnc2)c2ccccc2)cc1          %              89
 2  CCC/C(=C\C=C\C(=O)N[C@H](C)CCCc1cccnc1)c1ccc(OC)cc1          %              86
 3  COc1ccc(C(=C/C=C/C(=O)NC(CCCc2cccnc2)CCCc2cccnc2)c2ccc(OC)cc2)cc1          %              50
 4  O=C(/C=C/C=C(c1cccc(F)c1)c1cccc(F)c1)NCCCCc1cccnc1          %              72
 5  COc1ccc(/C=C/C=C/C(=O)N[C@H](C)CCCc2cccnc2)cc1          %              17
 6  O=C(/C=C/C=C(c1ccccc1C(F)(F)F)c1ccccc1C(F)(F)F)NCCCCc1cccnc1          %               6
 7  CCCC/C(=C\C=C\C(=O)N[C@H](C)CCCc1cccnc1)c1cccc(OC)c1          %              91
 8  COc1cccc(/C(=C\C=C\C(=O)NCCCCc2cccnc2)c2cccc(F)c2)c1          %              88
 9  CCCCC/C(=C/C=C/C(=O)N[C@H](C)CCCc1cccnc1)c1cccc(F)c1          %              93
10  CCCCC/C(=C\C=C\C(=O)N[C@H](C)CCCc1cccnc1)c1ccc(OC)c(OC)c1          %              99
11  COc1ccc(C(=C/C=C/C(=O)N[C@H](C)CCCc2cccnc2)c2ccc(OC)c(OC)c2)cc1OC          %              99
12  COc1ccc(C(=C/C=C/C(=O)NC(CCCc2cccnc2)c2ccc(Br)cc2)c2ccc(OC)cc2)cc1 (racemic)          %               6
13  COc1cccc(C(=C/C=C/C(=O)N[C@@H](C)CCCc2cccnc2)c2cccc(OC)c2)c1          %              36
14  COc1ccc(/C(=C\C=C\C(=O)N[C@H](C)CCCc2cccnc2)c2ccccc2)cc1          %              74
15  COc1cccc(C(=C/C=C/C(=O)NCCCCc2cccnc2)c2cccc(OC)c2)c1          %              69
16  CCCCC/C(=C/C=C/C(=O)N[C@H](C)CCCc1cccnc1)c1ccc(OC)cc1          %              57
17  CC[C@H](CCCc1cccnc1)NC(=O)/C=C/C=C(c1ccc(OC)cc1)c1ccc(OC)cc1          %              99
18  COc1ccc(C(=C/C=C/C(=O)NCCOCc2cccnc2)c2ccc(OC)cc2)cc1          %              48
19  Cc1ccc(C(=C/C=C/C(=O)NCCCCc2cccnc2)c2ccc(C)cc2)cc1          %              95
20  COc1ccc(/C(=C/C=C/C(=O)NCCCCc2cccnc2)c2cccnc2)cc1          %              78
21  COc1ccc(C(=C/C=C/C(=O)NCCCCCc2ccccn2)c2ccc(OC)cc2)cc1          %              27
22  COc1cccc(C(=C/C=C/C(=O)N[C@H](C)CCCc2cccnc2)c2cccc(OC)c2)c1          %              87
23  CCCCCC/C(=C\C=C\C(=O)N[C@H](C)CCCc1cccnc1)c1ccc(OC)cc1          %             100
24  COc1ccc(C(=C/C=C/C(=O)Nc2ccc(Cc3cccnc3)cc2)c2ccc(OC)cc2)cc1          %               3
25  COc1ccc(/C(=C\C=C\C(=O)NCCCCc2cccnc2)c2cccnc2)cc1          %              97
26  COc1ccc(/C(=C\C=C\C(=O)NCCCCc2cccnc2)c2ccccc2OC)cc1          %              80

###

target: PAF Binding, dog platelets (Canis lupus familiaris)
Construct: Washed platelets were prepared by resuspending the platelet pellet once with PBS containing 1 mM EDTA; from tissue; host or cells: washed platelets from dog blood
Sequence (A0A8I3NSH0 1-343): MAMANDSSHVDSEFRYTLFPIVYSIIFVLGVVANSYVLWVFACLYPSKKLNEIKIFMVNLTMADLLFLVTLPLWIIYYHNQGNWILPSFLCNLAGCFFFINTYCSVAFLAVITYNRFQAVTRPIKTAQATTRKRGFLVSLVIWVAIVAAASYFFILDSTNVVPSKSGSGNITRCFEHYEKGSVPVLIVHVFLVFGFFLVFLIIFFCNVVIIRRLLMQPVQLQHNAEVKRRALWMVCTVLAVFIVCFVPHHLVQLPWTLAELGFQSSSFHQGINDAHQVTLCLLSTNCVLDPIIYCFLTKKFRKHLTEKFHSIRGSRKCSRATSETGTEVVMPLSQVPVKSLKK
method: PAF Binding Assay (inhibition of 3H-PAF binding to washed dog platelets)
test settings: dog platelets, 3H-PAF, 10 minutes at room temperature; read-out: Inhib of PAF Binding IC50
pIC50: −log10 of the molar value.
experimental readout: pIC50

>>> df
                                    compound  experimental_readout  value_modifier  recorded_value
 0  CCC(CCCc1cccnc1)NC(=O)/C=C/C=C(c1ccc(OC)cc1)c1ccc(OC)cc1 (racemic)                 pIC50               =            7.05
 1  CC[C@H](CCCc1cccnc1)NC(=O)/C=C/C=C(c1ccc(OC)cc1)c1ccc(OC)cc1                 pIC50               =            6.92
 2  COc1ccc(C(=C/C=C/C(=O)Nc2ccc(Cc3cccnc3)cc2)c2ccc(OC)cc2)cc1                 pIC50               =            6.60
 3  CCCC(CCCc1cccnc1)NC(=O)/C=C/C=C(c1ccc(OC)cc1)c1ccc(OC)cc1 (racemic)                 pIC50               <            6.00
 4  CCCCCCCCCCCC/C(=C\C=C\C(=O)N[C@H](C)CCCc1cccnc1)c1ccc(OC)cc1                 pIC50               =            7.35
 5  COc1ccc(C(=C/C=C/C(=O)NC(CCCc2cccnc2)C2CCCCC2)c2ccc(OC)cc2)cc1 (racemic)                 pIC50               <            6.00
 6  COc1ccc(C(=C/C=C/C(=O)NC(CCCc2cccnc2)C2CCCC2)c2ccc(OC)cc2)cc1 (racemic)                 pIC50               <            6.00
 7  Cc1ccc(C(=C/C=C/C(=O)N[C@H](C)CCCc2cccnc2)c2ccc(C)cc2)cc1                 pIC50               =            6.60
 8  CCCCCC/C(=C\C=C\C(=O)N[C@H](C)CCCc1cccnc1)c1ccc(OC)cc1                 pIC50               =            8.05
 9  COc1ccc(C(=C/C=C/C(=O)NC(CCCc2cccnc2)CCCc2cccnc2)c2ccc(OC)cc2)cc1                 pIC50               =            6.30
10  COc1ccc(/C(=C\C=C\C(=O)N[C@H](C)CCCc2cccnc2)C2CC2)cc1                 pIC50               =            7.15
11  CCCCCC(=C/C=C/C(=O)N[C@H](C)CCCc1cccnc1)CCCCC                 pIC50               =            7.00
12  COc1cccc(C(=C/C=C/C(=O)NCCCCc2cccnc2)c2cccc(OC)c2)c1                 pIC50               =            8.70
13  CCCCC/C(=C\C=C\C(=O)N[C@@H](C)CCCc1cccnc1)c1ccc(OC)cc1                 pIC50               =            6.92
14  COc1ccc(C(=C/C=C/C(=O)NCCCCc2cccnc2)c2ccc(OC)cc2)cc1                 pIC50               =            7.60
15  COc1ccc(C(=C/C=C/C(=O)Nc2cccc3cnccc23)c2ccc(OC)cc2)cc1                 pIC50               =            6.22
16  COc1cccc(C(=C/C=C/C(=O)NC(C)CCCc2cccnc2)c2cccc(OC)c2)c1 (racemic)                 pIC50               =            7.70
17  CCCCC/C(=C/C=C/C(=O)N[C@H](C)CCCc1cccnc1)c1cccc(F)c1                 pIC50               =            6.98
18  COc1cccc(C(=C/C=C/C(=O)N[C@@H](C)CCCc2cccnc2)c2cccc(OC)c2)c1                 pIC50               =            6.52
19  O=C(/C=C/C=C(c1cccc(C(F)(F)F)c1)c1cccc(C(F)(F)F)c1)NCCCCc1cccnc1                 pIC50               =            6.82
20  COc1ccc(/C(C)=C/C=C/C(=O)N[C@H](C)CCCc2cccnc2)cc1                 pIC50               =            7.60
21  COc1ccc(C(=C/C=C/C(=O)NCCCCc2cccnc2)c2ccc(OC)c(OC)c2)cc1OC                 pIC50               =            7.26
22  CCc1ccc(CCCC(C)NC(=O)/C=C/C=C(c2ccc(OC)cc2)c2ccc(OC)cc2)cn1 (racemic)                 pIC50               =            6.05
23  CCC/C(=C\C=C\C(=O)N[C@H](C)CCCc1cccnc1)c1ccc(OC)cc1                 pIC50               =            7.30
24  COc1cccc(/C(=C/C=C/C(=O)NCCCCc2cccnc2)c2ccccc2)c1                 pIC50               =            7.70
25  C/C(=C\C=C(c1ccccc1)c1ccccc1)C(=O)NCCCCc1cccnc1                 pIC50               =            7.00
26  COc1ccc(/C(=C/C=C/C(=O)N[C@H](C)CCCc2cccnc2)C2CCCCC2)cc1                 pIC50               =            7.70
